- system-tested: Macrophage metalloelastase (Homo sapiens, UniProt P39900)
- Sequence (P39900 whole entry): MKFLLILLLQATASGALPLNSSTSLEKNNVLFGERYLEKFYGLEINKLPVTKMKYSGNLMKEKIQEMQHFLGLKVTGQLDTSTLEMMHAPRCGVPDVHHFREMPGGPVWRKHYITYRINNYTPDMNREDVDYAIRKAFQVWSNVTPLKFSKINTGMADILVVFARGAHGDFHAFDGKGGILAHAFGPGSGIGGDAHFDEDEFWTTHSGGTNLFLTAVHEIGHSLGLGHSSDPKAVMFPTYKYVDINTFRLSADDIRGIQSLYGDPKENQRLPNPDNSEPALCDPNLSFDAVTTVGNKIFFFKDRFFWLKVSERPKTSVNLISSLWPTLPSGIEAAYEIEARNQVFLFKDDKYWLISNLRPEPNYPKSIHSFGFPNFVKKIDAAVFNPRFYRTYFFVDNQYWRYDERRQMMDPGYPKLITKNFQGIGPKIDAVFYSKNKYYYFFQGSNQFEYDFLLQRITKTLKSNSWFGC
- procedure-summary: Inhibition of MMP12 using Mca-Pro-cyclohexyl-Ala-Gly-Nva-His-Ala- Dap(Dnp)-NH2 as substrate by fluorometric analysis
- experimental-setup: read-out: IC50
pIC50: −log10 of the molar value.

[
  {
    "compound": "CN1CCC(NC(=O)c2ccc(Oc3ccc(C#C[C@]4(O)CN5CCC4CC5)cc3)cc2)CC1",
    "system-tested": "Macrophage metalloelastase (Homo sapiens, UniProt P39900)",
    "pIC50": "< 5.10"
  },
  {
    "compound": "O=C(NC1CCCS(=O)(=O)C1)c1ccc(Oc2ccc(C#C[C@]3(O)CN4CCC3CC4)cc2)cc1 (single isomer, unassigned; diastereomer 1)",
    "system-tested": "Macrophage metalloelastase (Homo sapiens, UniProt P39900)",
    "pIC50": "< 5.00"
  }
]

###

- procedure-summary: Cytotoxicity in mouse spleen macrophages assessed as phospholipidosis
- experimental-setup: Macrophage
endpoint-name: EC50

[
  {
    "compound": "CN1CCC(NC(=O)c2ccc(Oc3ccc(C#C[C@]4(O)CN5CCC4CC5)cc3)cc2)CC1",
    "endpoint-name": "EC50",
    "observed-measurement": "8 µM"
  },
  {
    "compound": "O=C(NC1CCCS(=O)(=O)C1)c1ccc(Oc2ccc(C#C[C@]3(O)CN4CCC3CC4)cc2)cc1 (single isomer, unassigned; diastereomer 1)",
    "endpoint-name": "EC50",
    "observed-measurement": "116 µM"
  }
]

###

Attribute: IC50
- system-tested: Macrophage metalloelastase (Homo sapiens)
- procedure-summary: Inhibition of MMP12 using Mca-Pro-cyclohexyl-Ala-Gly-Nva-His-Ala- Dap(Dnp)-NH2 as substrate by fluorometric analysis
- experimental-setup: read-out: pIC50 (converted)
endpoint-name: IC50

[
  {
    "molecule": "CNC(=O)c1ccc(Oc2ccc(C#C[C@]3(O)CN4CCC3CC4)cc2)cc1",
    "observed-measurement": "> 100 µM"
  },
  {
    "molecule": "CNC(=O)N1CCC(NC(=O)c2ccc(Oc3ccc(C#C[C@]4(O)CN5CCC4CC5)cc3)cc2)CC1",
    "observed-measurement": "> 10 µM"
  },
  {
    "molecule": "CN1CCC(NC(=O)c2ccc(Oc3ccc(C#C[C@]4(O)CN5CCC4CC5)cc3)cc2)CC1",
    "observed-measurement": "7.94 µM"
  },
  {
    "molecule": "CC(=O)N1CCC(NC(=O)c2ccc(Oc3ccc(C#C[C@]4(O)CN5CCC4CC5)cc3)cc2)CC1",
    "observed-measurement": "> 10 µM"
  },
  {
    "molecule": "O=C(NC1CCS(=O)(=O)C1)c1ccc(Oc2ccc(C#C[C@]3(O)CN4CCC3CC4)cc2)cc1 (some centres undefined)",
    "observed-measurement": "> 10 µM"
  },
  {
    "molecule": "O=C(NC1CCN(C2CC2)CC1)c1ccc(Oc2ccc(C#C[C@]3(O)CN4CCC3CC4)cc2)cc1",
    "observed-measurement": "> 10 µM"
  },
  {
    "molecule": "CS(=O)(=O)N1CCC(NC(=O)c2ccc(Oc3ccc(C#C[C@]4(O)CN5CCC4CC5)cc3)cc2)CC1",
    "observed-measurement": "> 10 µM"
  },
  {
    "molecule": "O=C(NC1CCS(=O)(=O)CC1)c1ccc(Oc2ccc(C#C[C@]3(O)CN4CCC3CC4)cc2)cc1",
    "observed-measurement": "> 10 µM"
  },
  {
    "molecule": "O=C(NC1CCN(C(=O)C2CC2)CC1)c1ccc(Oc2ccc(C#C[C@]3(O)CN4CCC3CC4)cc2)cc1",
    "observed-measurement": "> 10 µM"
  }
]

###

- procedure-summary: Fraction unbound in dog
- Format: ADME, organism-based, Canis lupus familiaris
- experimental-setup: in vivo
endpoint-name: fraction unbound

[
  {
    "compound": "O=C(NC1CCCS(=O)(=O)C1)c1ccc(Oc2ccc(C#C[C@]3(O)CN4CCC3CC4)cc2)cc1 (single isomer, unassigned; diastereomer 1)",
    "endpoint-name": "fraction unbound",
    "observed-measurement": 0.33
  },
  {
    "compound": "CN1CCC(NC(=O)c2ccc(Oc3ccc(C#C[C@]4(O)CN5CCC4CC5)cc3)cc2)CC1",
    "endpoint-name": "fraction unbound",
    "observed-measurement": 0.47
  }
]

###

- procedure-summary: Apparent permeability across apical to basolateral side in human Caco2 cells at 10 uM
- Format: ADME, cell-based
- experimental-setup: Caco-2
endpoint-name: Papp A→B at 10 µM (×10⁻⁶ cm/s)

[
  {
    "molecule": "CN1CCC(NC(=O)c2ccc(Oc3ccc(C#C[C@]4(O)CN5CCC4CC5)cc3)cc2)CC1",
    "scale-unit": "×10⁻⁶ cm/s",
    "observed-measurement": 0.3
  },
  {
    "molecule": "Cc1cc(CN(C)C(=O)c2ccc(Oc3ccc(C#C[C@]4(O)CN5CCC4CC5)cc3)cc2)on1",
    "scale-unit": "×10⁻⁶ cm/s",
    "observed-measurement": 8.2
  },
  {
    "molecule": "O=C(NC1CCCS(=O)(=O)C1)c1ccc(Oc2ccc(C#C[C@]3(O)CN4CCC3CC4)cc2)cc1 (single isomer, unassigned; diastereomer 1)",
    "scale-unit": "×10⁻⁶ cm/s",
    "observed-measurement": 1.3
  },
  {
    "molecule": "CNC(=O)c1ccc(Oc2ccc(C#C[C@]3(O)CN4CCC3CC4)cc2)cc1",
    "scale-unit": "×10⁻⁶ cm/s",
    "observed-measurement": 23
  },
  {
    "molecule": "O=C(NCc1ccncn1)c1ccc(Oc2ccc(C#C[C@]3(O)CN4CCC3CC4)cc2)cc1",
    "scale-unit": "×10⁻⁶ cm/s",
    "observed-measurement": 6.7
  }
]

###

Entries and their measured hepatocyte CLint follow.
- procedure-summary: Intrinsic clearance in Sprague-Dawley rat hepatocytes assessed per 10^6 cells
- Assay type: ADME, cell-based, Hepatocyte
- experimental-setup: Sprague-Dawley, read-out: CLH

[
  {
    "compound": "O=C(NCc1ccncn1)c1ccc(Oc2ccc(C#C[C@]3(O)CN4CCC3CC4)cc2)cc1",
    "hepatocyte CLint": "3.2 µL/min/1e6 cells"
  },
  {
    "compound": "O=C(NC1CCS(=O)(=O)C1)c1ccc(Oc2ccc(C#C[C@]3(O)CN4CCC3CC4)cc2)cc1 (some centres not stated)",
    "hepatocyte CLint": "< 2 µL/min/1e6 cells"
  },
  {
    "compound": "CNC(=O)c1ccc(Oc2ccc(C#C[C@]3(O)CN4CCC3CC4)cc2)cc1",
    "hepatocyte CLint": "2.7 µL/min/1e6 cells"
  },
  {
    "compound": "O=C(NC1CCCS(=O)(=O)C1)c1ccc(Oc2ccc(C#C[C@]3(O)CN4CCC3CC4)cc2)cc1 (single isomer, unassigned; diastereomer 2)",
    "hepatocyte CLint": "3.4 µL/min/1e6 cells"
  },
  {
    "compound": "CS(=O)(=O)N1CCC(NC(=O)c2ccc(Oc3ccc(C#C[C@]4(O)CN5CCC4CC5)cc3)cc2)CC1",
    "hepatocyte CLint": "< 2 µL/min/1e6 cells"
  },
  {
    "compound": "CC(=O)N1CCC(NC(=O)c2ccc(Oc3ccc(C#C[C@]4(O)CN5CCC4CC5)cc3)cc2)CC1",
    "hepatocyte CLint": "< 2 µL/min/1e6 cells"
  },
  {
    "compound": "CN1CCC(NC(=O)c2ccc(Oc3ccc(C#C[C@]4(O)CN5CCC4CC5)cc3)cc2)CC1",
    "hepatocyte CLint": "< 2 µL/min/1e6 cells"
  }
]

###

- system-tested: Matrix metalloproteinase-14 (Homo sapiens)
- procedure-summary: Inhibition of MMP14 using Mca-Pro-cyclohexyl-Ala-Gly-Nva-His-Ala- Dap(Dnp)-NH2 as substrate by fluorometric analysis
- experimental-setup: read-out: IC50
pIC50: −log10 of the molar value.
pIC50 by entry:

[
  {
    "compound": "O=C(NC1CCCS(=O)(=O)C1)c1ccc(Oc2ccc(C#C[C@]3(O)CN4CCC3CC4)cc2)cc1 (single isomer, unassigned; diastereomer 1)",
    "pIC50": "< 5.00"
  },
  {
    "compound": "CN1CCC(NC(=O)c2ccc(Oc3ccc(C#C[C@]4(O)CN5CCC4CC5)cc3)cc2)CC1",
    "pIC50": "< 5.00"
  }
]

###

- system-tested: Interstitial collagenase (Homo sapiens, UniProt P03956)
- Sequence (P03956 whole entry): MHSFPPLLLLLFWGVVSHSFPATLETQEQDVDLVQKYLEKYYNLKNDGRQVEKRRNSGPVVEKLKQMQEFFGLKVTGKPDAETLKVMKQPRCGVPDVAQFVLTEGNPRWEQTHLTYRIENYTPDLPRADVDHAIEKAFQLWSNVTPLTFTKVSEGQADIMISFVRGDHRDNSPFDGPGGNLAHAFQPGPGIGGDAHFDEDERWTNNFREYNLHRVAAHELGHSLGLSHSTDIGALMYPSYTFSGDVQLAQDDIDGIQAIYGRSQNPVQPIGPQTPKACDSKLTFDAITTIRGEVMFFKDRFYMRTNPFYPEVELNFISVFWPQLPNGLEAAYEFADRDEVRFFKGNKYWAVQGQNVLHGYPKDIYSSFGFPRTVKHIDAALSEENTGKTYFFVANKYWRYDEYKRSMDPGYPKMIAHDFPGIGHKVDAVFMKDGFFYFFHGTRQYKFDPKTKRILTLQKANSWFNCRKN
endpoint-name: IC50

[
  {
    "molecule": "O=C(NC1CCCS(=O)(=O)C1)c1ccc(Oc2ccc(C#C[C@]3(O)CN4CCC3CC4)cc2)cc1 (single isomer, unassigned; diastereomer 1)",
    "observed-measurement": "> 10 µM"
  }
]
